Source of measurements: patent US10669272B2

- measured-target: human DGKζ (Homo sapiens, UniProt Q13574)
- Construct: TVMV protease cleavage site (C); Hexa-His (C); made in house; host or cells: Sf9 insect cells (baculovirus, Bac-to-Bac)
- Sequence (Q13574 with tags, fused parts or gaps isoform Q13574-4): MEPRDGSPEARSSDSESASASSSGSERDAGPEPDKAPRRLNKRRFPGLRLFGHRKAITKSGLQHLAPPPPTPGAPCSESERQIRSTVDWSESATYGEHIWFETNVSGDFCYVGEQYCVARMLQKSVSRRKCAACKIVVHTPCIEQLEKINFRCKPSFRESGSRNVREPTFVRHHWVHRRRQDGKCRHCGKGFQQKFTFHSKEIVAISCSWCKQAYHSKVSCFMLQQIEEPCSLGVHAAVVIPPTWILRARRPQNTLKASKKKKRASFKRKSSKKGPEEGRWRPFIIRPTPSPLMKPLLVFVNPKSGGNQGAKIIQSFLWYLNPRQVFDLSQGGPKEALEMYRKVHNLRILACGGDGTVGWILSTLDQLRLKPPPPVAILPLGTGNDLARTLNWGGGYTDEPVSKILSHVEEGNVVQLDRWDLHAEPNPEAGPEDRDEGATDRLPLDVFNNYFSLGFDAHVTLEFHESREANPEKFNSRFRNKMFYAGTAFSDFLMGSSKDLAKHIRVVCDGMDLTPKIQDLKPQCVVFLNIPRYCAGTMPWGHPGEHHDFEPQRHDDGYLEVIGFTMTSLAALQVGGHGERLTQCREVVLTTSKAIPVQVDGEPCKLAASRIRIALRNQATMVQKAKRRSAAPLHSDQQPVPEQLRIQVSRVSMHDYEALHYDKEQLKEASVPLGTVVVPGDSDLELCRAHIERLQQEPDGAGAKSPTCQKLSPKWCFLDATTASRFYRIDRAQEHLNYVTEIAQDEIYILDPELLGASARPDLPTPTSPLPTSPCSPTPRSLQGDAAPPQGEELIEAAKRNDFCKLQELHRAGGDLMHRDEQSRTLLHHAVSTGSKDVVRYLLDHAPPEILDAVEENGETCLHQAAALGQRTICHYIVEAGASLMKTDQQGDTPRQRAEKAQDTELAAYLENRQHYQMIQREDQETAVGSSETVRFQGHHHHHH
- test-description: DGKζ LIPGLO assay (extruded liposome substrate), in vitro DGK inhibition
- Assay type: biochemical
- measurement-setup: liposome (LIPGLO) assay; read-out: DGKz LIPGLO IC50
Overview of recorded pIC50 for various compounds
Please report pIC50 as the negative decimal logarithm of the molar concentration, giving only the number.

Worked cases, pIC50 given:
1. CC[C@H]1CN(C(C)c2ccc(F)cc2)[C@H](CC)CN1c1cc(=O)n(C)c2ccc(C#N)nc12 (single isomer, unassigned) [Example 1049] : 7.38
2. C[C@@H]1CN(c2c(F)c(=O)n(C)c3ccc(C#N)nc23)[C@@H](C)CN1C(c1ccc(Cl)cc1)c1ccc(OC(F)(F)F)cc1 (stereo partly drawn) : 5.39
3. CC(c1cccc(C(F)(F)F)n1)N1C[C@H](C)N(c2cc(=O)n(C)c3ccc(C#N)nc23)C[C@H]1C (single isomer, unassigned) [Example 636] : 5.10
4. CCc1ccc(C(c2cccc(F)c2)N2C[C@H](C)N(c3cc(=O)n(C)c4ccc(C#N)nc34)C[C@H]2C)nc1 (single isomer, unassigned) [Example 350] : 5.74
5. C[C@@H]1CN(c2cc(=O)n(C)c3ccc(C#N)nc23)[C@@H](C)CN1Cc1ccc(Cl)cc1O : 5.96

**Query** Requested field: pIC50. Item: Cc1ccc(C(c2ccc(Cl)cc2)N2C[C@H](C)N(c3cc(=O)n(C)c4ccc(C#N)nc34)C[C@H]2C)nc1 (single isomer, unassigned) [Example 213]
**Result** 6.10

----------
- measured-target: human DGKζ (Homo sapiens)
- Construct: TVMV protease cleavage site (C); Hexa-His (C); made in house; host or cells: Sf9 insect cells (baculovirus, Bac-to-Bac)
- test-description: DGKζ LIPGLO assay (extruded liposome substrate), in vitro DGK inhibition
- Type: biochemical
- measurement-setup: liposome (LIPGLO) assay; read-out: DGKz LIPGLO IC50
property-label: log10 of IC50 (log10 of the value in nM)
Short version: log10 scale, IC50, nM.

Worked cases, log10 of IC50 given:
1) C[C@@H]1CN(c2cc(=O)n(C)c3ccc(C#N)nc23)[C@@H](C)CN1Cc1c(F)cccc1F [Example 271] : 3.28
2) Cn1c(=O)cc(N2CCN(C(c3ccc(F)cc3)c3ccc(F)cc3)C(C(=O)NC3CC3)C2)c2nc(C#N)ccc21 (single isomer, unassigned) [Example 48] : 4.30
3) CC[C@H]1CN(C(c2ccc(F)cc2)c2ncccc2F)[C@H](CC)CN1c1cc(=O)n(C)c2ccc(C#N)nc12 (single isomer, unassigned) [Example 1037] : 2.45
4) CC[C@@H]1CN(c2cc(=O)n(C)c3ccc(C#N)nc23)[C@@H](C)CN1C(c1ccc(F)cc1)c1ccc(C#N)cc1 (single isomer, unassigned) [Example 1103] : 2.43
5) C[C@@H]1CN(c2cc(=O)n(C)c3ccc(C#N)nc23)[C@@H](C)CN1C(c1ccc(F)cc1)c1cnn(C)c1 (single isomer, unassigned) [Example 703] : 3.40
6) C[C@@H]1CN(c2cc(=O)n(C)c3ccc(C#N)nc23)[C@@H](C)CN1C(c1ccc(F)cc1)c1csc(C(F)(F)F)n1 (single isomer, unassigned) [Example 1333] : 2.20
7) C[C@@H]1CN(c2cc(=O)n(C)c3ccc(C#N)nc23)[C@@H](C)CN1C(c1ccc(F)cc1)c1ccncn1 (single isomer, unassigned) [Example 402] : 3.97
8) C[C@@H]1CN(c2cc(=O)n(C)c3ccc(C#N)nc23)[C@@H](C)CN1C(c1ccccc1)c1ccc(Cl)cc1 (single isomer, unassigned) [Example 670] : 3.56
9) C[C@@H]1CN(c2c(C#N)c(=O)n(C)c3ccc(C#N)nc23)CCN1C(c1ccc(F)cc1)c1cn(C)cn1 (single isomer, unassigned) [Example 1027] : 3.34
10) C[C@@H]1CN(c2cc(=O)n(C)c3ccc(C#N)nc23)[C@@H](C)CN1C(c1ccc(F)cc1)c1cnn2ccccc12 (single isomer, unassigned) [Example 699] : 3.32

Now look at this entry.
**Query** Requested field: log10 of IC50. Item: Cc1ccc(C(c2ccc(C)c(Cl)c2)N2C[C@H](C)N(c3cc(=O)n(C)c4ccc(C#N)nc34)C[C@H]2C)nc1 (single isomer, unassigned) [Example 373]
**Result** 2.87
